# Assay summary: cell-permeable autofluorescent compounds in GFP channel, dose response, artefact control, imaging, high-content imaging (AID 2124);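 further: cells exposed to compound for 48 hours before fixing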
# Experimental parameters: cells, GFP-channel autofluorescence, high-content imaging; cell count; at 10 µM
Results filed as inconclusive are left out.
Recorded metric: log10 of cell count (log10 of the value in cells)

> print(dat)
                                    compound  number
 1  CC(C)SC1=NC(C)(C)C=C(/C=C/c2ccc(Cl)cc2Cl)N1    3.47
 2  O=C(NCC1CCCO1)C1CCN(S(=O)(=O)N2CCCC2)CC1 (stereo unspecified)    3.50
 3    N#C/C(=C/c1ccc(N2CCCCC2)o1)c1cccc(F)c1    3.24
 4    O=C1c2cccc3c(O)ccc(c23)C(=O)N1Cc1ccco1    3.45
 5  CCCN1C(=O)/C(=C/c2c(N3CCNC(=O)C3CC(=O)OCC)nc3c(C)cccn3c2=O)SC1=S (stereo unspecified)    3.45
 6    Cc1cc(N2CCCC2)ccc1/C=C1\NC(=S)N(C)C1=O    3.39
 7  O=C1/C(=C/c2ccc(N3CCOCC3)o2)SC(=Nc2ccccc2)N1CCc1c[nH]c2ccccc12    2.28
 8      CCCn1nc2cc(C(=O)NCc3ccccc3)ccc2c1OCC    3.52
 9       Cc1cc2c(C(F)(F)F)cc(=O)oc2c2c1NCCC2    3.51
10  Nc1c(C(=O)c2ccccc2)sc2nsc(SCCN3CCCC3)c12    3.34
11  CCN1C=CC2=C(C#N)C(N)C(C#N)(C#N)C(c3ccccc3C(F)(F)F)C2C1 (stereo unspecified)    3.43

====

This listing pairs compounds with measured log10 cell count.
# Assay summary: cell-permeable autofluorescent compounds in GFP channel, dose response, artefact control, imaging, high-content imaging (AID 2124);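 further: cells exposed to compound for 48 hours before fixing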
# Experimental parameters: cells, GFP-channel autofluorescence, high-content imaging; cell count; at 10 µM
Results filed as inconclusive are left out.
Recorded metric: log10 cell count (log10 of the value in cells)

> print(dat)
                                    compound   recorded.metric  number
 1  N#Cc1c2c(c(-n3cnc4ccccc43)n3c1nc1ccccc13)CCC2  log10 cell count    3.49
 2  Nc1c(C(=O)Nc2nc3ccccc3s2)sc2nc(-c3cccs3)ccc12  log10 cell count    2.34
 3  CC(NC(=O)/C(C#N)=C1\N=C(NC(=O)c2ccco2)c2ccccc21)c1ccccc1 (stereo not given)  log10 cell count    3.44
 4           N#Cc1nc(N2CCOCC2)nc(N2CCOCC2)n1  log10 cell count    3.49
 5              Cc1ccccc1OCC(=O)OC1CCN(C)CC1  log10 cell count    3.47
 6  CCCN1CCc2c(sc(NC(=S)NC(=O)c3ccccc3)c2C#N)C1  log10 cell count    3.51
 7  Cc1ccc(-n2c(Cc3cccs3)nnc2SCC(=O)OC(C)C)cc1  log10 cell count    3.47
 8  O=[N+]([O-])c1ccc(N2N=C(c3ccco3)CC2c2ccccc2)cc1 (stereo not given)  log10 cell count    3.45
 9  C=CCNC(=O)/C(=C\c1ccc(Br)cc1)NC(=O)c1ccccc1OC  log10 cell count    3.53
10   CCCc1cc(=O)[nH]c(SCC(=O)NCCCC(=O)OCC)n1  log10 cell count    3.48
11  C=CCN1C(=O)c2cccc3c(N4CCCCC4)ccc(c23)C1=O  log10 cell count    3.52
12  Cn1c(=O)c(N)c2c3c(c(Br)ccc31)C(=O)c1ccccc1-2  log10 cell count    3.51
13  COc1ccc2nc(SCC(=O)Nc3c(C)cccc3C)[nH]c2c1  log10 cell count    3.54
14  COc1ccc(-c2nnn(CC(=O)N(CCO)C(C(=O)NC3CCCC3)c3ccc(F)cc3)n2)cc1 (stereo not given)  log10 cell count    3.51
15   CC(C)/C=C1\CC/C(=C\c2ccc(N(C)C)cc2)C1=O  log10 cell count    3.45
16    COc1cccc(/C=N/NC(=O)CCn2cnc3ccccc32)c1  log10 cell count    3.51
17   Cc1cccc2sc(NNC(=O)c3ccc4c(c3)OCCO4)nc12  log10 cell count    3.51
18  CCN1CC=C2C(C#N)=C(N)C(C#N)(C#N)C(CCc3ccccc3)C2C1 (stereo not given)  log10 cell count    3.50
19  Cc1ccc(-n2c(C)nc3oc4ccccc4c(=O)c3c2=O)cc1  log10 cell count    3.50
20  CN(C)c1ccc(/C=C/C(=O)c2c(O)c3ccccc3oc2=O)cc1  log10 cell count    3.51
21  Cc1csc(NC(=O)CN(C)S(=O)(=O)c2cccc3cccnc23)n1  log10 cell count    3.51
22  COc1ccc(CN=Cc2[nH]c3ccc(Br)c(Cl)c3c2O)cc1  log10 cell count    3.50
23             Cc1cc(Nc2nn(C)c(N)c2C#N)ccc1F  log10 cell count    3.52
24              c1ccc(-c2csc(-n3cnnn3)n2)cc1  log10 cell count    3.51
25  Cc1cc(N2CCCC2)ccc1/C=C1/C(=O)N(C)C(=S)N1C  log10 cell count    3.47
26  C=CCNC(=O)C1CCN(S(=O)(=O)c2ccc(Br)cc2)CC1  log10 cell count    3.51
27  CC1CCCC(C2(O)C(=O)Nc3ccccc32)C1=O (stereo not given)  log10 cell count    3.50
28     Nc1ccc2c(c1)Cc1cc([N+](=O)[O-])ccc1-2  log10 cell count    3.46
29  COc1ccc(N(C(=O)Cc2cccs2)C2C=CS(=O)(=O)C2)cc1 (stereo not given)  log10 cell count    3.53
30  C/C(=N\S(=O)(=O)c1ccc(C)cc1)N1CCN(S(=O)(=O)c2ccccc2)C1  log10 cell count    3.50
31  CC(=O)c1c(COC(=O)c2ccncc2)nc2ccccc2[n+]1[O-]  log10 cell count    3.46
32      CCCCn1c(=O)[nH]c2nc3cc(N)ccc3nc2c1=O  log10 cell count    3.55
33  CC(=O)NC(c1ccc(Cl)cc1)c1c(O)ccc2ccc(O)cc12 (stereo not given)  log10 cell count    3.50
34  COc1cc(C)nc(N2CCCC(C(=O)Nc3cccc(Cl)c3C)C2)n1 (stereo not given)  log10 cell count    3.49
35  CCCOc1ccc(-c2nn(-c3ccccc3)cc2/C=C2\SC(=S)N(C3CCS(=O)(=O)C3)C2=O)cc1 (stereo not given)  log10 cell count    3.45
36  CCN1CCc2c(sc(NC(=S)NC(=O)c3ccc(Cl)cc3)c2C(N)=O)C1  log10 cell count    3.48
37           Cc1cc(S(=O)(=O)NC2CCCCC2)c(C)s1  log10 cell count    3.53
38  O=C1S/C(=C\c2ccc(N3CCOCC3)o2)C(=O)N1c1ccccc1  log10 cell count    3.03
39  COc1ccccc1N1CCN(C/C(O)=C(\C#N)c2nc(-c3ccccc3)cs2)CC1  log10 cell count    3.49
40  CCN(CC)c1ccc2cc(C(N)=O)/c(=N\NC(=O)c3ccncc3)oc2c1  log10 cell count    3.49
41  CC1(C)Cc2c(c(-c3ccccc3)[nH]c(=O)c2C#N)CO1  log10 cell count    3.55
42    Cc1ccccc1NCC(=O)N/N=C/c1c[nH]c2ccccc12  log10 cell count    3.43
43  Cc1ccc(/C=[N+](\[O-])c2ccc(N(C)C)cc2)c2nsnc12  log10 cell count    3.27
44  CCCc1n[nH]c2c1C(=O)C(C(=O)OC)C(C)(C)C2 (stereo not given)  log10 cell count    3.52
45  COc1ccc(CN(CC2CCC(C(=O)O)CC2)C(=S)Nc2cccc(C)c2)cc1 (stereo not given)  log10 cell count    3.49

These data points were gathered from PubChem BioAssay AID2124.
